Please go through the items and note down their percentage of the remaining compound.
- experimental.protocol: pH stability of quenched linker-payloads in buffers (LCMS)
- Format: physicochemical
- condition.details: pH 5.0, 7 Day, RT
Numbers only, in %.

# annotated cases, reported percentage of the remaining compound shown
CCCC1O[C@@H]2C[C@H]3[C@@H]4CCC5=CC(=O)C=C[C@]5(C)[C@H]4[C@@H](O)C[C@]3(C)[C@]2(C(=O)COC2CCCN2C(=O)CNC(=O)CCOCCOCCOCCOCCNC(=O)CCC(=O)N2Cc3ccccc3-c3c(nnn3CC3OC4OC5C(CO)OC(OC6C(CO)OC(OC7C(CO)OC(OC8C(CO)OC(OC9C(CO)OC(OC3C(O)C4O)C(O)C9O)C(O)C8O)C(O)C7O)C(O)C6O)C(O)C5O)-c3ccccc32)O1 (stereo partly shown) [Q2L6-PII-9]
66
CC(C)[C@H](NC(=O)CCOCCOCCOCCOCCNC(=O)CCC(=O)N1Cc2ccccc2-c2c(nnn2CCOCCOCCOCCOCCC(=O)NCCS(=O)(=O)O)-c2ccccc21)C(=O)N[C@@H](CCCNC(N)=O)C(=O)Nc1ccc(COC(=O)NCC(=O)NCOCC(=O)[C@@]2(O)[C@H](C)C[C@H]3[C@@H]4CCC5=CC(=O)C=C[C@]5(C)[C@@]4(F)[C@@H](O)C[C@@]32C)cc1 [Q1L1-PI]
100
CCCC1O[C@@H]2C[C@H]3[C@@H]4CCC5=CC(=O)C=C[C@]5(C)[C@H]4[C@@H](O)C[C@]3(C)[C@]2(C(=O)COCN(C)C(=O)CNC(=O)OCc2ccc(NC(=O)[C@H](CCCNC(N)=O)NC(=O)[C@@H](NC(=O)CCOCCOCCOCCOCCNC(=O)CCC(=O)N3Cc4ccccc4-c4c(nnn4CCOCCOCCOCCOCCC(=O)NCCS(=O)(=O)O)-c4ccccc43)C(C)C)cc2)O1 (stereo partly shown) [Q1L1-PII-8]
100

*Q* Return reported percentage of the remaining compound. Input compound: CCCC1O[C@@H]2C[C@H]3[C@@H]4CCC5=CC(=O)C=C[C@]5(C)[C@H]4[C@@H](O)C[C@]3(C)[C@]2(C(=O)COCNC(=O)CNC(=O)CCC(=O)N2Cc3ccccc3-c3c(nnn3CC3OC4OC5C(CO)OC(OC6C(CO)OC(OC7C(CO)OC(OC8C(CO)OC(OC9C(CO)OC(OC3C(O)C4O)C(O)C9O)C(O)C8O)C(O)C7O)C(O)C6O)C(O)C5O)-c3ccccc32)O1 (stereo partly shown) [Q2L7-PII-1]
*A* 100

Just for reference, patent US20230119539A1 is where these values come from.
